system: DU-145; assay: Percent growth of prostate DU-145 cell line was determined at 10e-6 M concentration after 48 hr of exposing; assay type: functional, Homo sapiens

| Compound Smiles | Unit Spec | Growth |
| --- | --- | --- |
| COc1ccc2c(c1)c(=O)c1c(NCCCN(C)CCCNc3ccc4c(=O)n(CCN(C)C)c(=O)n5c6ccc(OC)cc6c(=O)c3c45)ccc3c(=O)n(CCN(C)C)c(=O)n2c31 | % | 3 |
| COc1ccc2c(c1)-c1nn(CCN(C)C)c3ccc(C(=O)NCCCN(C)CCCNC(=O)c4ccc5c6c(c7cc(OC)ccc7nc46)NN5CCN(C)C)c(c13)N2 | % | -8 |
| CN(C)CCn1c(=O)c2ccc(NCCCN(C)CCCNc3ccc4c(=O)n(CCN(C)C)c(=O)n5c6ccc([N+](=O)[O-])cc6c(=O)c3c45)c3c(=O)c4cc([N+](=O)[O-])ccc4n(c1=O)c23 | % | -13 |
| CN(C)CCn1c(=O)c2ccc(NCCCN(C)CCCNc3ccc4c(=O)n(CCN(C)C)c(=O)n5c6ccccc6c(=O)c3c45)c3c(=O)c4ccccc4n(c1=O)c23 | % | -13 |
| CN(C)CCN1Nc2c3ccccc3nc3c(C(=O)NCCCN(C)CCCNC(=O)c4ccc5c6c(c7ccccc7nc46)NN5CCN(C)C)ccc1c23 | % | -23 |
| CN(C)CCn1c(=O)c2ccc(NCCCN(C)CCCNc3ccc4c(=O)n(CCN(C)C)c(=O)n5c6ccc(O)cc6c(=O)c3c45)c3c(=O)c4cc(O)ccc4n(c1=O)c23 | % | -6 |

---

test system: 786-0; assay: Percent growth of renal 786-O cell line was determined at 10e-6 M concentration after 48 h of exposing; format: functional, Homo sapiens

| Compound Smiles | Unit Spec | Growth |
| --- | --- | --- |
| CN(C)CCn1c(=O)c2ccc(NCCCN(C)CCCNc3ccc4c(=O)n(CCN(C)C)c(=O)n5c6ccc([N+](=O)[O-])cc6c(=O)c3c45)c3c(=O)c4cc([N+](=O)[O-])ccc4n(c1=O)c23 | % | -4 |
| COc1ccc2c(c1)c(=O)c1c(NCCCN(C)CCCNc3ccc4c(=O)n(CCN(C)C)c(=O)n5c6ccc(OC)cc6c(=O)c3c45)ccc3c(=O)n(CCN(C)C)c(=O)n2c31 | % | 10 |
| CN(C)CCn1c(=O)c2ccc(NCCCN(C)CCCNc3ccc4c(=O)n(CCN(C)C)c(=O)n5c6ccc(O)cc6c(=O)c3c45)c3c(=O)c4cc(O)ccc4n(c1=O)c23 | % | 1 |
| CN(C)CCN1Nc2c3ccccc3nc3c(C(=O)NCCCN(C)CCCNC(=O)c4ccc5c6c(c7ccccc7nc46)NN5CCN(C)C)ccc1c23 | % | 5 |
| CN(C)CCn1c(=O)c2ccc(NCCCN(C)CCCNc3ccc4c(=O)n(CCN(C)C)c(=O)n5c6ccccc6c(=O)c3c45)c3c(=O)c4ccccc4n(c1=O)c23 | % | 4 |
| COc1ccc2c(c1)-c1nn(CCN(C)C)c3ccc(C(=O)NCCCN(C)CCCNC(=O)c4ccc5c6c(c7cc(OC)ccc7nc46)NN5CCN(C)C)c(c13)N2 | % | 11 |

---

system: HCT-116; assay: Cytotoxicity against human HCT116 cancer cell line was determined after 1 hr; format: functional, cell-based; conditions: HCT-116, 1 h

| Compound Smiles | Target Entity | IC50 / nM |
| --- | --- | --- |
| CN(C)CCn1c(=O)c2ccc(NCCCN(C)CCCNc3ccc4c(=O)n(CCN(C)C)c(=O)n5c6ccccc6c(=O)c3c45)c3c(=O)c4ccccc4n(c1=O)c23 | HCT-116 | 0.72 |
